Just for reference, patent US5567692A is where these values come from.

Listed below: MIC values for each entry.
- System: E. coli J3272 Tet C
- Assay explanation: microbe, parasite or virus in culture
- Type: cell-based
- Particulars: Escherichia coli, J3272TETC, 18 h
Structures can show the parent of a compound that is named as a salt.
Quick reminder: number only, in µg/mL, skip the unit.

The cases that follow already have their MIC on record.
{"Compound": "CCCCCNCC(=O)Nc1ccc2c(c1O)C(=O)C1=C(O)[C@]3(O)C(=O)C(C(N)=O)=C(O)[C@@H](N(C)C)C3CC1C2 (stereo partly shown) [K, monohydrochloride]", "Value units": "µg/mL", "MIC": 0.5}
{"Compound": "CC(C(=O)Nc1ccc2c(c1O)C(=O)C1=C(O)[C@]3(O)C(=O)C(C(N)=O)=C(O)[C@@H](N(C)C)C3CC1C2)N(C)C (stereo partly shown) [B, dihydrochloride]", "Value units": "µg/mL", "MIC": 1}
{"Compound": "CN(C)[C@@H]1C(O)=C(C(N)=O)C(=O)[C@@]2(O)C(O)=C3C(=O)c4c(ccc(NC(=O)CNCC5CC5)c4O)CC3CC12 (stereo partly shown) [Q, dihydrochloride]", "Value units": "µg/mL", "MIC": 0.5}

So, CCCNCC(=O)Nc1ccc2c(c1O)C(=O)C1=C(O)[C@]3(O)C(=O)C(C(N)=O)=C(O)[C@@H](N(C)C)C3CC1C2 (stereo partly shown) [C, dihydrochloride] ? Its MIC was 0.5

So, CN(C)[C@@H]1C(O)=C(C(N)=O)C(=O)[C@@]2(O)C(O)=C3C(=O)c4c(ccc(NC(=O)CNCc5ccccc5)c4O)CC3CC12 (stereo partly shown) [J, dihydrochloride] ? Its MIC was 4

So, CCN(CC)CC(=O)Nc1ccc2c(c1O)C(=O)C1=C(O)[C@]3(O)C(=O)C(C(N)=O)=C(O)[C@@H](N(C)C)C3CC1C2 (stereo partly shown) [O, dihydrochloride] ? Its MIC was 1
